test-description: H9c2 cardiomyocyte survival under peroxide injury – uHTS, H9c2 cells, ATPLite luminescence, primary screen (AID 588492);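 also: 0% = DMSO wells with peroxide and 100% = DMSO wells without peroxide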
experimental-parameters: H9c2 cardiomyocytes, 2 h, at 20 µM, stronger effect = higher value
Screen size: about 360,000 compounds; about 2,300 (0.64%) were called active. Shown is part of a subset that was picked to be rich in actives.
# Lookup of reported protection from H2O2 cell death keyed by entry
Your answer should be a plain number; it is taken to be in %.

Worked cases, protection from H2O2 cell death given:
C#Cc1cc(N2CCN(C(=O)c3ccoc3)CC2)n2nc(-c3cccc(Cl)c3)cc2n1 = 84.5
O=C1CCN(Cc2ccc([N+](=O)[O-])cc2)CCN1[C@H](CO)Cc1ccccc1 = 0.1
O=C(CCc1ccc(O)cc1)NN=Cc1cc(Br)ccc1O = 41.5

Incoming: Consider the compound Cc1ccc(S(=O)(=O)N(C)C)cc1NC(=O)CN1c2cccc3cccc(c23)S1(=O)=O and give its measured protection from H2O2 cell death.
Outgoing: 3.5

Incoming: Consider the compound O=C(c1ccccc1)N1CCN(C(=O)c2cc3nc(-c4ccccc4)cc(C(F)(F)F)n3n2)CC1 and give its measured protection from H2O2 cell death.
Outgoing: 11.3

Incoming: Consider the compound Fc1ccc(-c2ccc(-c3nn4c(-c5ccco5)nnc4s3)o2)cc1 and give its measured protection from H2O2 cell death.
Outgoing: 98.7

Incoming: Consider the compound CNc1nnc(-c2ccco2)s1 and give its measured protection from H2O2 cell death.
Outgoing: 3.7

Incoming: Consider the compound Oc1ccc(Br)cc1C=Nc1ccc2[nH]ncc2c1 and give its measured protection from H2O2 cell death.
Outgoing: 63.8

Incoming: Consider the compound CCN(CC)c1ccc(S(=O)(=O)N2CCCCC2)cc1NC(=O)C1=COCCO1 and give its measured protection from H2O2 cell death.
Outgoing: -3.5

Incoming: Consider the compound CN(C)CCN1CCN(c2cc(-c3cccc(Cl)c3)nc3ccnn23)CC1 and give its measured protection from H2O2 cell death.
Outgoing: 19.8

* * *

# Lookup of reported protection from H2O2 cell death keyed by entry
test-description: H9c2 cardiomyocyte survival under peroxide injury – uHTS, H9c2 cells, ATPLite luminescence, primary screen (AID 588492);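 also: 0% = DMSO wells with peroxide and 100% = DMSO wells without peroxide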
experimental-parameters: H9c2 cardiomyocytes, 2 h, at 20 µM, stronger effect = higher value
The whole screen tested about 360,000 compounds, of which about 2,300 (0.64%) were called active. The list comes from a sample in which actives are over-represented; it also holds close analogues and randomly drawn compounds.
Your answer should be a plain number; it is taken to be in %.

Worked cases, protection from H2O2 cell death given:
COc1cc(C(C)=O)ccc1OC(C)C(=O)Nc1ccc(S(=O)(=O)N2CCCC2)cc1 (stereo not given) = 4.6
CCN(CC)Cc1nc2sc(C)c(C)c2c(=O)[nH]1 = 12.4
Cc1cc(C)c(CN2CCN(C(=O)Cn3ccc(NC(=O)OCc4ccccc4)nc3=O)CC2)c(C)c1 = -25
COc1ccc(-c2ccc(Nc3ccc(S(=O)(=O)N4CCCC4)cc3)nn2)cc1OC = 58.5
COc1cc(Br)cc(/C=N/c2ncn[nH]2)c1O = 88.7

Incoming: Consider the compound CCOC(=O)Cc1csc(NC(=O)COc2ccc3c(C)cc(=O)oc3c2)n1 and give its measured protection from H2O2 cell death.
Outgoing: 71.2

Incoming: Consider the compound Nc1nc2cc(Cl)ccc2n1N and give its measured protection from H2O2 cell death.
Outgoing: 1.6

Incoming: Consider the compound CC1=C/C(=N\S(=O)(=O)c2ccccc2)C(C(C)C)=CC1=O and give its measured protection from H2O2 cell death.
Outgoing: 63.7

Incoming: Consider the compound CCOC(=O)Cc1csc(SCC(=O)Nc2ccc(C)cc2F)n1 and give its measured protection from H2O2 cell death.
Outgoing: -15.1

Incoming: Consider the compound c1ccc(-c2cn3c(n2)CCc2ccc4cccnc4c2-3)cc1 and give its measured protection from H2O2 cell death.
Outgoing: 61.6

* * *

test-description: H9c2 cardiomyocyte survival under peroxide injury – uHTS, H9c2 cells, ATPLite luminescence, primary screen (AID 588492);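 also: 0% = DMSO wells with peroxide and 100% = DMSO wells without peroxide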
experimental-parameters: H9c2 cardiomyocytes, 2 h, at 20 µM, stronger effect = higher value
The campaign covered roughly 360,000 compounds. About 2,300 (0.64%) were called active. The list comes from a sample in which actives are over-represented; it also holds close analogues and randomly drawn compounds.
value-type: protection from H2O2 cell death (%)
Your answer should be a plain number; it is taken to be in %.

Worked cases, protection from H2O2 cell death given:
O=C(CNC(=O)c1ccc(Cl)cc1Cl)NCC(=O)Nc1ccccc1N1CCOCC1 = -2.6
Cc1ccc(C)c(C(=O)COC(=O)Cn2[nH]c(=O)c3ccccc3c2=O)c1 = 82

Incoming: Consider the molecule O=C(COC(=O)c1ccc(S(=O)(=O)N2CCCCCC2)cc1)Nc1ccccc1C(F)(F)F and give its measured protection from H2O2 cell death.
Outgoing: 2.5

Incoming: Consider the molecule O=C(Nc1cccc2cccnc12)c1ccc2sc([C@H]3C[C@H](O)[C@@H](CO)O3)nc2c1 and give its measured protection from H2O2 cell death.
Outgoing: 76.9

* * *

test-description: H9c2 cardiomyocyte survival under peroxide injury – uHTS, H9c2 cells, ATPLite luminescence, primary screen (AID 588492);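 also: 0% = DMSO wells with peroxide and 100% = DMSO wells without peroxide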
experimental-parameters: H9c2 cardiomyocytes, 2 h, at 20 µM, stronger effect = higher value
Hit rate of the full screen: of about 360,000 compounds, about 2,300 (0.64%) were called active. The sample as a whole holds a higher share of actives than the screen did.
value-type: protection from H2O2 cell death (%)
Your answer should be a plain number; it is taken to be in %.

O=C(NCC1(N2CCCCC2)CCCCC1)c1cccc(S(=O)(=O)Nc2ccccc2Cl)c1 = 28.2
COc1ccc(CNC(=O)/C(C#N)=C/c2cccc(OC)c2OC)cc1 = 1.5
N#Cc1ccccc1NC(=O)c1cccc(COc2ccc(Cl)cc2Cl)c1 = -3.6
CCOC(=O)c1cc(-c2nnc(-c3cc(OC)c(OC)c(OC)c3)o2)c(C)nc1C = 119

Incoming: Consider the molecule Cc1nc(C)c(-c2nnc(-c3cccc(S(=O)(=O)N(C)C)c3)o2)cc1C(=O)NN and give its measured protection from H2O2 cell death.
Outgoing: -1.4

Incoming: Consider the molecule COc1cccc(CNc2nc3cc(-c4csc5ccccc45)sc3c(=O)n2C)c1 and give its measured protection from H2O2 cell death.
Outgoing: -3.9

Incoming: Consider the molecule O=C(NC(=O)N1CCSCC1)c1c(Cl)cccc1Cl and give its measured protection from H2O2 cell death.
Outgoing: 4.6

Incoming: Consider the molecule Cc1cc2c3ccccc3[nH]c(=O)n2n1 and give its measured protection from H2O2 cell death.
Outgoing: 2.8

Incoming: Consider the molecule COc1ccc(CC(=O)NCC(=O)N/N=C/c2cc(Br)ccc2OC)cc1 and give its measured protection from H2O2 cell death.
Outgoing: 52.8

Incoming: Consider the molecule CCc1nc2ccc(C(=O)N(C)Cc3ccco3)cn2c1N(C)C(=O)Cc1ccccc1 and give its measured protection from H2O2 cell death.
Outgoing: -2.1

* * *

test-description: H9c2 cardiomyocyte survival under peroxide injury – uHTS, H9c2 cells, ATPLite luminescence, primary screen (AID 588492);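 also: 0% = DMSO wells with peroxide and 100% = DMSO wells without peroxide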
experimental-parameters: H9c2 cardiomyocytes, 2 h, at 20 µM, stronger effect = higher value
In all, about 360,000 compounds went through this assay and about 2,300 (0.64%) were called active. Only a selection was taken, and actives are over-represented in it overall.
value-type: protection from H2O2 cell death (%)
Your answer should be a plain number; it is taken to be in %.

Worked cases, protection from H2O2 cell death given:
Cn1c2c(c(=O)n(C)c1=O)C1c3ccccc3OCC1C(C)(C)O2 (stereo not given) = 11
CCN1C(=O)[C@@H]2[C@@H]3CN(S(=O)(=O)c4ccccc4C)[C@@H](c4ccc(Cl)cc4)[C@@H]3C(=O)C[C@@H]2C1=O = 8.3
O=S(=O)(Nc1ccccn1)c1cccc(S(=O)(=O)c2ccc(Cl)cc2)c1 = -4.1

Incoming: Consider the compound COc1cc(NS(=O)(=O)c2ccc3ccccc3c2)c2ncccc2c1 and give its measured protection from H2O2 cell death.
Outgoing: 61.8

Incoming: Consider the compound Cc1nn(-c2ccccc2)c(C)c1/C=N/NC(=O)CSc1nc2ccccc2c(=O)n1-c1ccccc1 and give its measured protection from H2O2 cell death.
Outgoing: 22.5

Incoming: Consider the compound CSCCC(c1nnnn1Cc1ccccc1)N1CCN(C/C=C/c2ccccc2)CC1 (stereo not given) and give its measured protection from H2O2 cell death.
Outgoing: -2

* * *

test-description: H9c2 cardiomyocyte survival under peroxide injury – uHTS, H9c2 cells, ATPLite luminescence, primary screen (AID 588492);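 also: 0% = DMSO wells with peroxide and 100% = DMSO wells without peroxide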
experimental-parameters: H9c2 cardiomyocytes, 2 h, at 20 µM, stronger effect = higher value
Hit rate of the full screen: of about 360,000 compounds, about 2,300 (0.64%) were called active. Many of the other results were omitted from the sample, so actives are more common in it than they were.
value-type: protection from H2O2 cell death (%)
Your answer should be a plain number; it is taken to be in %.

Incoming: Consider the compound CCOCCCNC(=O)C(NC(=O)c1ccc(=O)[nH]c1)c1ccc(Cl)cc1 (stereo not given) and give its measured protection from H2O2 cell death.
Outgoing: -7.9

Incoming: Consider the compound CCN(CC(=O)Nc1ccc2c(c1)OCO2)S(=O)(=O)c1ccccc1 and give its measured protection from H2O2 cell death.
Outgoing: -7.6
